In this section, each of the binders is paired with its reported Kd.
Biological target: T1, human soluble ULBP2 (hULBP2) (human, UniProt Q9BZM5 26-216)
T1 construct: also called sULBP2
T1 sequence: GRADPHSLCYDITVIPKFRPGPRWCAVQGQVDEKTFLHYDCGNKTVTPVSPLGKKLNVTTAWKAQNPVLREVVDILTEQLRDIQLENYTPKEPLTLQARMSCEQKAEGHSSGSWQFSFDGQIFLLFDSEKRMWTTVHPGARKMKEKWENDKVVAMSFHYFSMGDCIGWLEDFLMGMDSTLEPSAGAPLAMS
Assay: SPR (BIACORE 8K, 37 C); antibody captured on Protein A, soluble ULBP injected;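 also: ligand injected as threefold dilution series in HBS-P (highest 10 or 50 nM), reference-cell and buffer-subtracted sensorgrams fitted with a 1:1 Langmuir model for on and off rates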
Supply the numeric figure in nM, leaving out any unit text.

{"columns": ["Binder", "Kd / nM"],
 "data": [
  ["humanized 8E11 (h8E11), Fc version not stated (antibody, V domains shown, Recombinant humanized antibody, hIgG1 backbone with kappa light chain; also called PUR3926) VH: EVQLVESGGGLVQPGGSLRLSCAASGFTFRTYGMHWVRQAPGKGLEWVAYISSGSGTIDYADTVKGRFTISRDNAKNSLYLQMNSLRAEDTAVYYCTRQTGAMDYWGQGTLVTVSS VL: EIVLTQSPATLSLSPGERATLSCSASSSVSYMNWYQQKPGQSPRLWIYGISNLASGVPARFSGSGSGTDFTLTISSLEPEDFAVYYCQQRSSHPLTFGGGTKVEIK", 0.662]
]}

Tell me the measured Kd of humanized 6E1 (h6E1), Fc version not stated (antibody, V domains shown, Recombinant humanized antibody, hIgG1 backbone with kappa light chain; also called hu6E1; PUR3993) VH: EVQLVQSGAEVKKPGASVKVSCKASGYTFTNYWMHWMRQAPGQGLEWLGRIHPSDSDTNYNQKFKGRATLTVDKSISTAYMELSRLRSDDTAVYYCAIEGTGKGYFDVWGRGTLVTVSS VL: DIQMTQSPSSLSASVGDRVTITCKASQDIYSYLSWFQQKPGKSPKTLIYRANRLVDGVPSRFSGSGSGQDFTLTISSLQPEDFATYYCLHYDEFPLTFGGGTKVEIK , please.
10.7

Tell me the measured Kd of humanized 1D4 (h1D4), Fc version not stated (antibody, V domains shown, Recombinant humanized antibody, hIgG1 backbone with kappa light chain; also called hiD4; hu1D4) VH: EIQLVQSGSELKKPGASVKVSCKASGYTFTEYPIHWVRQAPGQGFEWMGMIYTDTGEPTHAEEFKGRFVFSLDTSVSTAYLQISSLKAEDTAVYFCVRWYDGSSYIMDYWGQGTTVTVSS VL: DIQMTQSPSSLSASVGDRVTITCKASQDINSYLSWFQQKPGKSPKTLIYRANRLVDGVPSRFSGSGSGQDYTFTISSLQPEDIATYYCLQYDEFPLTFGGGTKVEIK , please.
0.642
